- TARGET_SYSTEM: 6×HIS-tankyrase 1 (1091-1325) (Homo sapiens (Human), UniProt O95271)
- Sequence (O95271 1091-1325): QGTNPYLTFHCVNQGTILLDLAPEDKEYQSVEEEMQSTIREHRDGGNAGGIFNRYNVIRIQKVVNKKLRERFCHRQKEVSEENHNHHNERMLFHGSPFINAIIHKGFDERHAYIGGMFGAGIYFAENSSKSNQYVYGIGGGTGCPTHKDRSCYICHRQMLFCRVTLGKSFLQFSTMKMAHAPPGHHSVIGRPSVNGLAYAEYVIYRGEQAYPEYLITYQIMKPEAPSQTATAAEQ
- ASSAY_PROTOCOL: biochemical
- Format: biochemical
pIC50: −log10 of the molar value.
MEASURE_NAME: pIC50

MOLECULE	TARGET_SYSTEM	TEST_RESULT
CC1(C)OC(=O)N([C@H]2CC[C@H](n3c(=O)oc4cccnc43)CC2)[C@H]1c1ccccc1 [Example 49]	6×HIS-tankyrase 1 (1091-1325) (Homo sapiens (Human), UniProt O95271)	5.46

###

Catalogue of pIC50 values
- TARGET_SYSTEM: 6×HIS-tankyrase 1 (1091-1325) (Homo sapiens (Human), UniProt O95271)
- ASSAY_PROTOCOL: biochemical
- Type: biochemical
- RUN_CONDITIONS: […] enzyme, 400 nM NAD, 60 minutes at room temperature; read-out: TNKS1 IP IC50
pIC50: −log10 of the molar value.

COMPOUND	pIC50
CC1(C)OC(=O)N(c2ccc(C(=O)Nc3cccc4cccnc34)cc2)[C@H]1c1cccc(F)c1 [Example 110]	6.71
CC1(C)OC(=O)N([C@H]2CC[C@H](NC(=O)c3ccncc3)CC2)[C@H]1c1ccccc1 [Example 142]	6.69
CC1(C)OC(=O)N([C@H]2CC[C@@H](c3cnc(N)c(C4=NCCCN4)c3)CC2)[C@H]1c1ccccc1 [Example 76]	5.01
CC1(C)OC(=O)N(c2ccc(C(=O)Nc3nccc4cccnc34)cc2)[C@H]1c1ccccc1 [Example 20]	5.83
CC1(C)OC(=O)N([C@H]2CC[C@H](c3cnc4[nH]c(=O)n(-c5ncccn5)c4c3)CC2)[C@H]1c1ccccc1 [Example 98]	9.50
CC1(c2ccccc2)CN([C@H]2CC[C@@H](n3c(=O)[nH]c4cc(C#N)ccc43)CC2)C(=O)O1 (stereo partly shown) [Example 92]	8.31
CC1(C)OC(=O)N(C2CC(c3nnc(-c4ccccc4)o3)C2)[C@@H]1c1ccccc1 (mixture of isomers) [Example 175]	5.83

###

Let's go through some IC50 measurements on 6×HIS-tankyrase 2 (946-1162) (Homo sapiens (Human)) together.
Sequence (Q9H2K2 946-1162): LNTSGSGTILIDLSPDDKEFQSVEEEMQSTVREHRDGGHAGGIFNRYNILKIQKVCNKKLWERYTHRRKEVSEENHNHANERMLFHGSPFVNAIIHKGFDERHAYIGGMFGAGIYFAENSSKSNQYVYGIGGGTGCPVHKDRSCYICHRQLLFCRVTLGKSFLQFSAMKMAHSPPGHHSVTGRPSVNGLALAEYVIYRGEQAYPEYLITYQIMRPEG
MEASURE_NAME: IC50 (nM)

SMILES_TEXT	READING_UNIT	TEST_RESULT
CC1(C)OC(=O)N(c2ccc(-c3cnc(N)c(-c4ncc(F)cn4)c3)cc2)[C@H]1c1ccccc1	nM	48.3
CC1(C)OC(=O)N(c2ccc(-c3cc(-c4ncccn4)c[nH]c3=O)cc2)[C@H]1c1ccccc1	nM	65.9
CC1(C)OC(=O)N(c2ccc(-c3cnc(N)c(-c4ncccn4)c3)cc2)[C@H]1c1ccccc1	nM	25.9
CC1(C)OC(=O)N(c2ccc(-c3cnc(N)c(-c4ccc5nncn5n4)c3)cc2)[C@H]1c1ccccc1	nM	49.3

###

- TARGET_SYSTEM: 6×HIS-tankyrase 1 (1091-1325) (Homo sapiens (Human), UniProt O95271)
- ASSAY_PROTOCOL: biochemical
- Type: biochemical
- RUN_CONDITIONS: […] enzyme, 400 nM NAD, 60 minutes at room temperature; read-out: TNKS1 IP IC50
pIC50: −log10 of the molar value.
Catalogue of pIC50 values
MEASURE_NAME: pIC50

COMPOUND	MEASURE_NAME	TEST_RESULT
CC1(C)OC(=O)N(c2ccc(-c3cnc(N)nc3)cc2)[C@H]1c1ccccc1	pIC50	5.83
CC1(C)OC(=O)N([C@H]2CC[C@H](NC(=O)c3ccccc3)CC2)[C@H]1c1ccccc1	pIC50	6.12
CC1(C)OC(=O)N(C2CC=C(c3cc4ccncc4[nH]c3=O)CC2)[C@H]1c1ccccc1 (stereo partly shown)	pIC50	8.16
CC1(C)OC(=O)N(c2ccc(C(=O)Nc3cccc4cccnc34)cc2)[C@@H]1c1cccc(F)c1	pIC50	5.26
